Hey, just so you know, these numbers are from the supplement of paper PMC11196671.

Test: terephthalic acid (TPA) released, HPLC; higher = more TPA released; extreme values may be limits of the assay
Details: PET substrate: aFilm; 70 °C; pH 7.5; 24 h
measured-property: terephthalic acid (mM)
Numbers only, in mM.

Input line: State its terephthalic acid: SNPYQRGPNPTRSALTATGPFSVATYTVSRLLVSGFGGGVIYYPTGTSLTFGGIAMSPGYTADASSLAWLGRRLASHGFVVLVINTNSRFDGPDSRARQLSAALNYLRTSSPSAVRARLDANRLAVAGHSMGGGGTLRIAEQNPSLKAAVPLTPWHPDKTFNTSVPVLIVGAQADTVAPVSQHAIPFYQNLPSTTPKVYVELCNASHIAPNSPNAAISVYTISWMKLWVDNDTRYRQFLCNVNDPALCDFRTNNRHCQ [LCC-ICCG I6M]
Output line: 1.37

====

Experiment: PET hydrolysis product formed (TPA+MHET+BHET, UV-Vis) per mg enzyme (mmol/mg enzyme); higher = more PET depolymerisation activity; extreme values may be limits of the assay
Conditions: PET substrate: aFilm; 60 °C; pH 7.5; 2 h
measured-property: PET hydrolysis product formed
Answers are plain numbers.

Example sequences with recorded PET hydrolysis product formed:
sequence-entry: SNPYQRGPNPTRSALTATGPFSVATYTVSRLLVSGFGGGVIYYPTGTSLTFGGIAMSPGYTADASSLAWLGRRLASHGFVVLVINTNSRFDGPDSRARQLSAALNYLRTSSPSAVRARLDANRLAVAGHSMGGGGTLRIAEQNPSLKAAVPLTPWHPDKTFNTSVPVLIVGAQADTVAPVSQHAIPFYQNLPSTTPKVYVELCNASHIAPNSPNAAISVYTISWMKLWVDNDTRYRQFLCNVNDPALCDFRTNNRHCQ [LCC-ICCG I6M]
PET hydrolysis product formed: 0.0723

sequence-entry: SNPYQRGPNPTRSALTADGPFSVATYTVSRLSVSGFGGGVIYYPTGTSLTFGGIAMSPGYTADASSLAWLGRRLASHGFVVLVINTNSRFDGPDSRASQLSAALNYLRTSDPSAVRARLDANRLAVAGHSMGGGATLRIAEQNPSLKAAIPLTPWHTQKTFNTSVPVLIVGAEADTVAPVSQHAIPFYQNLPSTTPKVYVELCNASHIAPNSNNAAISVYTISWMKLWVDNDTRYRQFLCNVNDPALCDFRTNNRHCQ [LCC-ICCG DAQI]
PET hydrolysis product formed: 0.0608

sequence-entry: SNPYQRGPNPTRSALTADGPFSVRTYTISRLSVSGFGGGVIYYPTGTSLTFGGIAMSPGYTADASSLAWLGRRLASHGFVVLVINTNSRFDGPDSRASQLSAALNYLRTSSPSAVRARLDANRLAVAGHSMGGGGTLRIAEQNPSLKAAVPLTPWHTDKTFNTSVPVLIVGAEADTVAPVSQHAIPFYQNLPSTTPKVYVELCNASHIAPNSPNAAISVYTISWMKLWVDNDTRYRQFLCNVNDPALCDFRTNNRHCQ [LCC-ICCG RIP]
PET hydrolysis product formed: 0.0697

In the following, a different sequence is considered.
Input line: State its PET hydrolysis product formed: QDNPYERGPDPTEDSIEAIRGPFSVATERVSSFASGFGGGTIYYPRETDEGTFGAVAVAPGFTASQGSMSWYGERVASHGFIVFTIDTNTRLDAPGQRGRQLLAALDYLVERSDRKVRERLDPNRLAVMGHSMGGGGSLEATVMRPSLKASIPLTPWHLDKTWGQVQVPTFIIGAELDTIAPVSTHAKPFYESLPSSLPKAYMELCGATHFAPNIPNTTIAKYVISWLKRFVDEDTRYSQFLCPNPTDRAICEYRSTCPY [Cut190*SS]
Output line: 0.00672

====

Assay: BHET released, HPLC; higher = more BHET released; extreme values may be limits of the assay
Conditions: PET substrate: cryPow; 70 °C; pH 8.5; 24 h
Exercise: state measured BHET released for each of the sequences provided.
Give bare numbers, in mM.

sequence-entry: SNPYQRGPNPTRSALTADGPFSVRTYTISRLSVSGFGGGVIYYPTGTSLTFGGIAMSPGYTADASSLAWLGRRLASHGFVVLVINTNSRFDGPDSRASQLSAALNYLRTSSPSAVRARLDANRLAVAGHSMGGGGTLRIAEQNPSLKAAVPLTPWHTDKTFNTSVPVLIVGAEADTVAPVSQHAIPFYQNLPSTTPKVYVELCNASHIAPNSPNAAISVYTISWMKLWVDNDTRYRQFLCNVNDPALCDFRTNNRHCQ [LCC-ICCG RIP]
BHET released, mM: 0

In the following, a different sequence is considered.
Input line: State its BHET released: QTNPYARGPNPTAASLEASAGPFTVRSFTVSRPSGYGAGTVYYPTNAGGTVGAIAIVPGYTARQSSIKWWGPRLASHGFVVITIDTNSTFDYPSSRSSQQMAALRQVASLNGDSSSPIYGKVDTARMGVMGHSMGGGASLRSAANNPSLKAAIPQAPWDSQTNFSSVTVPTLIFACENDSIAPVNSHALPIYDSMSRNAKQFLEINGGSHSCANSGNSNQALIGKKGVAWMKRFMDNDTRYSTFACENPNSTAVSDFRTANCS [DuraPETase]
Output line: 0

====

Test: BHET released, HPLC; higher = more BHET released; extreme values may be limits of the assay
Settings: PET substrate: cryPow; 60 °C; pH 7.5; 24 h
measured-property: BHET released (mM)
Give bare numbers, in mM.

Example sequences with recorded BHET released:
sequence-entry: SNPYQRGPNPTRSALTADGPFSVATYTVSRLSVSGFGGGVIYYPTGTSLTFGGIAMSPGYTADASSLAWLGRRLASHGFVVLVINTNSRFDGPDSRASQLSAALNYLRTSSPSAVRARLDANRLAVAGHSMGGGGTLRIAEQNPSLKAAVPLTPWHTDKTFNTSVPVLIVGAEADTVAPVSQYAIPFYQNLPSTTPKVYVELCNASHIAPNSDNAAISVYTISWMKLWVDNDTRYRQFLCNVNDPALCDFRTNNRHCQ [LCC-A2]
measured-property: BHET released
value-measured: 0
//
sequence-entry: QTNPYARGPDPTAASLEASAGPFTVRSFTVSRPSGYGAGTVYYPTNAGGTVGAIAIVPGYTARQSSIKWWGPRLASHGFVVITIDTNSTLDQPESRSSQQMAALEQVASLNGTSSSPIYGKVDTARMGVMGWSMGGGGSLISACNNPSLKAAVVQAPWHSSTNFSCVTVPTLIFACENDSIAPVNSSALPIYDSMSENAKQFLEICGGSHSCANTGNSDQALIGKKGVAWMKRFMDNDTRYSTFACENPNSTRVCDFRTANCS [Z1-PETase]
measured-property: BHET released
value-measured: 0

In the following, a different sequence is considered.
Input line: State its BHET released: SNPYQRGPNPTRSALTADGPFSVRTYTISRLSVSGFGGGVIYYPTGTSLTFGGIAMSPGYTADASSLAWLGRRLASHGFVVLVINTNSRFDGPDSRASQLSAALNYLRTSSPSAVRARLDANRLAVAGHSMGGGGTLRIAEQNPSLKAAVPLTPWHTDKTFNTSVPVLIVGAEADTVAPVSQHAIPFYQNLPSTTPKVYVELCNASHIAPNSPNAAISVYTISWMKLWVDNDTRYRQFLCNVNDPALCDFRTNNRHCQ [LCC-ICCG RIP]
Output line: 0

====

Assay: terephthalic acid (TPA) released, HPLC; higher = more TPA released; extreme values may be limits of the assay
Conditions: PET substrate: cryPow; 60 °C; pH 9.5; 24 h
measured-property: terephthalic acid (mM)
One number for each entry, in mM.

Example sequences with recorded terephthalic acid:
sequence-entry: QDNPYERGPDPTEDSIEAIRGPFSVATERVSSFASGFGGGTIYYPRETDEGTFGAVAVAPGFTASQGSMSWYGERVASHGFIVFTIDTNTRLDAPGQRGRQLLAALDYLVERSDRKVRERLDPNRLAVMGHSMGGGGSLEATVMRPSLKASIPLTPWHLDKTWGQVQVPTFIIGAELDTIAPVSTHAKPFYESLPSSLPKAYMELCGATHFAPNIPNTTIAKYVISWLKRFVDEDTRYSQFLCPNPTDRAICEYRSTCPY [Cut190*SS]
measured-property: terephthalic acid
value-measured: 0.302
//
sequence-entry: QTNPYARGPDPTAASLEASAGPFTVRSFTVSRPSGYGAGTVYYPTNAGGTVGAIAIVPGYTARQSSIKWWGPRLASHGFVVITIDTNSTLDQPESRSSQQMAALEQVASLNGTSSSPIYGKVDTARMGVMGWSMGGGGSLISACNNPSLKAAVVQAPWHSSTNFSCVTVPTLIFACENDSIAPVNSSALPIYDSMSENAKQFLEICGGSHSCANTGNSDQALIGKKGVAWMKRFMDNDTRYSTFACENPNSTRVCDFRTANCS [Z1-PETase]
measured-property: terephthalic acid
value-measured: 0.72
//
sequence-entry: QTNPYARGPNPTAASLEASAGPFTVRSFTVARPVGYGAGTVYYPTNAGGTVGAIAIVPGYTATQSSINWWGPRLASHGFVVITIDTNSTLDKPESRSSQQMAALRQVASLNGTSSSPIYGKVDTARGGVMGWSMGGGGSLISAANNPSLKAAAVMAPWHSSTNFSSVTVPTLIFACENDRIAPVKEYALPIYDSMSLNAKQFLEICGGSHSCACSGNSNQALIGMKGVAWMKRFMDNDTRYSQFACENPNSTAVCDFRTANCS [HotPETase]
measured-property: terephthalic acid
value-measured: 0.681

In the following, a different sequence is considered.
Input line: State its terephthalic acid: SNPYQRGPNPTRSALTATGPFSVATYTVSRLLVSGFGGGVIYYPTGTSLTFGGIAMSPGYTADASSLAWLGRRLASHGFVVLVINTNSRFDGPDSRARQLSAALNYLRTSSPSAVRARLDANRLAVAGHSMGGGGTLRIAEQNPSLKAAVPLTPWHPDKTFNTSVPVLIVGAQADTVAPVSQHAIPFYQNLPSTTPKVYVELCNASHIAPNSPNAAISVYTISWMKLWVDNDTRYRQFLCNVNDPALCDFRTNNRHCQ [LCC-ICCG I6M]
Output line: 0.263
